Biological target: Neu5Ac(a2-6)Gal(b1-4)GlcNAc(b1-2)Man(a1-6)[Gal(b1-4)GlcNAc(b1-2)Man(a1-3)]Man(b1-4)GlcNAc(b1-4)GlcNAc
Test: glycan array binding signal (z-score within array); higher = stronger binding
Conditions: glycan notation: IUPAC condensed, linker removed
This excerpt belongs to a sample that is enriched for the strongest signals.
QUANTITY KIND: glycan array binding signal (z-score)

binder="DBA (Dolichos biflorus) (protein) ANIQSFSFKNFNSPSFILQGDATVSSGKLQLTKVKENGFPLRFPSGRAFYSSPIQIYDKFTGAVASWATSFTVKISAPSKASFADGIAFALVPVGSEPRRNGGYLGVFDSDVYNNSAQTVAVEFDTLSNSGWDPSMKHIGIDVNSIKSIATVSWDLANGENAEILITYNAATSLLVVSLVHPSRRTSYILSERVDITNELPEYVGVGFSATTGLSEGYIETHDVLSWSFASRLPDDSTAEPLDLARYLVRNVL" quantity_kind="glycan array binding signal (z-score)" experimental_value=-0.144
binder="Gal 4 (Mus musculus), P56470 (protein) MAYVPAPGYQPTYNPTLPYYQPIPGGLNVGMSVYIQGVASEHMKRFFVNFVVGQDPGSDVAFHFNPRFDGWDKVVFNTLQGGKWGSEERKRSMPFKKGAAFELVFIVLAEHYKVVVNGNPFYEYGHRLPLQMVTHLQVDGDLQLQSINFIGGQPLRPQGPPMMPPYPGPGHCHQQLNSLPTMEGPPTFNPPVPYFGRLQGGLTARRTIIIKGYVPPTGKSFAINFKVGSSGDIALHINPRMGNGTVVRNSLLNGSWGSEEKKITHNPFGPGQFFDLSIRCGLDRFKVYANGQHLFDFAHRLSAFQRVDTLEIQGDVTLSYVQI" quantity_kind="glycan array binding signal (z-score)" experimental_value=-0.196
binder="BDCA-2 (Homo sapiens), Q8WTT0 (protein) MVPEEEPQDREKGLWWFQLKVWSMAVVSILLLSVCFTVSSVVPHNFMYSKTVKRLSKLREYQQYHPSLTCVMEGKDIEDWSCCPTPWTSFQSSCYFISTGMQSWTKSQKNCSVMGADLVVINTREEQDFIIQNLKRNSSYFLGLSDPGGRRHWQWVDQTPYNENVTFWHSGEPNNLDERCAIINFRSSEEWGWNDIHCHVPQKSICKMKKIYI" quantity_kind="glycan array binding signal (z-score)" experimental_value=11.8
binder="SP16663B-bot-321-25-321 (Bacteroides ovatus) (protein) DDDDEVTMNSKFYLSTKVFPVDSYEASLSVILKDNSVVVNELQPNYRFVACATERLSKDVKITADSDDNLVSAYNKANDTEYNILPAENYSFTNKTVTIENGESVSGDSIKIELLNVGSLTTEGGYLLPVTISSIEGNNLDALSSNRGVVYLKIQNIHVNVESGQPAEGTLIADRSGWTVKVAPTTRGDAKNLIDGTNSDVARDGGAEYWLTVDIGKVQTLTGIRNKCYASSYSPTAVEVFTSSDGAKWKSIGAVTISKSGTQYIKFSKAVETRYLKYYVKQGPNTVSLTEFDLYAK" quantity_kind="glycan array binding signal (z-score)" experimental_value=-0.492
binder="FGFR2-Fc (protein) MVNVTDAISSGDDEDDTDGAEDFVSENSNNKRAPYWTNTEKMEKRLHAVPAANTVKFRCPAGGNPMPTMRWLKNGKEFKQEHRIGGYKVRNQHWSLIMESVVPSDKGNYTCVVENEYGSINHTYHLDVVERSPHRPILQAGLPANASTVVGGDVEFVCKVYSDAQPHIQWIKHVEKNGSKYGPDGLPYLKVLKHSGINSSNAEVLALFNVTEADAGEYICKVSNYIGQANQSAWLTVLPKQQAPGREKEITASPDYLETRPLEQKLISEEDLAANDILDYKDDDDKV" quantity_kind="glycan array binding signal (z-score)" experimental_value=0.258
